# TGT: Cholinesterase (Homo sapiens, UniProt P06276, D98G)
# Sequence (P06276 29-602 D98G limits assumed): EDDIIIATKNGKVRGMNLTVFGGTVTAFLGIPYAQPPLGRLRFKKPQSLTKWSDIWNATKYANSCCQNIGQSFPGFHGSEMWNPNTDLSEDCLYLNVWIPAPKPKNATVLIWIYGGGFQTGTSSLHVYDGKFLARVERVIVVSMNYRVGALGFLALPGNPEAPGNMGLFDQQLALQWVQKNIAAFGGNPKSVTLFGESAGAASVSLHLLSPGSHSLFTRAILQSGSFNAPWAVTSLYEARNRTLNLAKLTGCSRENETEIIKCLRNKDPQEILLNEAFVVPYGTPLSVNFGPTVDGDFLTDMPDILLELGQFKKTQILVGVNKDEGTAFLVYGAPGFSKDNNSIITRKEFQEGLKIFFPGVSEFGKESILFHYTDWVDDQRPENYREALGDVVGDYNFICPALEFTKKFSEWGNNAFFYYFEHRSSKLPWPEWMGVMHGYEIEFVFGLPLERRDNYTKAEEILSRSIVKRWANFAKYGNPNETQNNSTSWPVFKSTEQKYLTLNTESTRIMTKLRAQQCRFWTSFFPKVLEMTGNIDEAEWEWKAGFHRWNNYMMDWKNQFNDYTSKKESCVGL
# ASSAY_REMARKS: Inhibition of human BChE D70G mutant atypical homozygous variant using propionylthiocholine as substrate assessed as inhibition rate constant incubated up to 30 mins prior to substrate addition by Ellman's method
Overview of reported bimolecular inhibition rate constant (ki) across a group of compounds:

Sample CC(C)NCC(O)c1ccc(OC(=O)N(C)C)c(OC(=O)N(C)C)c1.Cl (racemic) — what was its bimolecular inhibition rate constant (ki)? 21 ×10³ /M/min

----------
# TGT: Cholinesterase (Homo sapiens, UniProt P06276, T271M/G418V)
# Sequence (P06276 29-602 T271M/G418V limits assumed): as the sequence (P06276 29-602 D98G limits assumed) above, with G70D, T243M, G390V counted along it
# ASSAY_REMARKS: Inhibition of human BChE T243M/G390V mutant fluoride-resistant homozygous variant using propionylthiocholine as substrate assessed as inhibition rate constant incubated up to 30 mins prior to substrate addition by Ellman's method
READOUT_KIND: bimolecular inhibition rate constant (ki)

COMPOUND	TEST_VALUE
CC(C)NCC(O)c1ccc(OC(=O)N(C)C)c(OC(=O)N(C)C)c1.Cl (racemic)	140 ×10³ /M/min
CC(C)NCC(O)c1cc(OC(=O)N(C)C)cc(OC(=O)N(C)C)c1.Cl (racemic)	600 ×10³ /M/min
CC(C)NC[C@H](O)c1ccc(OC(=O)N(C)C)c(OC(=O)N(C)C)c1.Cl	150 ×10³ /M/min

Read the next record carefully.
Any idea what its bimolecular inhibition rate constant (ki) is? The compound is `CC(C)NC[C@H](O)c1cc(OC(=O)N(C)C)cc(OC(=O)N(C)C)c1.Cl` 1100 ×10³ /M/min

----------
# TGT: Cholinesterase (Homo sapiens, UniProt P06276)
# ASSAY_REMARKS: Inhibition of human BChE usual homozygous variant using propionylthiocholine as substrate assessed as inhibition rate constant incubated up to 30 mins prior to substrate addition by Ellman's method
# Sequence (P06276 29-602 limits assumed, stated change not applied): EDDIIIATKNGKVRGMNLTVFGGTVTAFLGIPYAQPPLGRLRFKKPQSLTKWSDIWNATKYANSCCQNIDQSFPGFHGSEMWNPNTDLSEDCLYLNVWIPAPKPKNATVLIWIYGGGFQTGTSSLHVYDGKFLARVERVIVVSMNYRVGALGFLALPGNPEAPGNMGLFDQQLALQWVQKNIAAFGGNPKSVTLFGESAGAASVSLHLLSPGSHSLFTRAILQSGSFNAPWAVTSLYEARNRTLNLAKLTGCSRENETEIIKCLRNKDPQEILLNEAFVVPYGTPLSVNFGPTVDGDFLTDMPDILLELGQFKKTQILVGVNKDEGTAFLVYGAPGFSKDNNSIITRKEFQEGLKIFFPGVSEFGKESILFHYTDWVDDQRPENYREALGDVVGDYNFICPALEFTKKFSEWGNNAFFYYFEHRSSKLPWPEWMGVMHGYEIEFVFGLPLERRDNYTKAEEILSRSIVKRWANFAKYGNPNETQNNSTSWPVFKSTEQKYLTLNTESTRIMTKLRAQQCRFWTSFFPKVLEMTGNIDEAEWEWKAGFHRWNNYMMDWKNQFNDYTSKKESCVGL
READOUT_KIND: bimolecular inhibition rate constant (ki) (×10³ /M/min)
Number in ×10³ /M/min, nothing else.

Return bimolecular inhibition rate constant (ki) measured with Cholinesterase (Homo sapiens, UniProt P06276) given this compound: CC(C)NCC(O)c1ccc(OC(=O)N(C)C)c(OC(=O)N(C)C)c1.Cl (racemic) 200

Short answer please: bimolecular inhibition rate constant (ki), Cholinesterase (Homo sapiens, UniProt P06276), entry CC(C)NCC(O)c1cc(OC(=O)N(C)C)cc(OC(=O)N(C)C)c1.Cl (racemic) 2200

Return bimolecular inhibition rate constant (ki) measured with Cholinesterase (Homo sapiens, UniProt P06276) given this compound: `CC(C)NC[C@H](O)c1ccc(OC(=O)N(C)C)c(OC(=O)N(C)C)c1.Cl` 340

Can you look up bimolecular inhibition rate constant (ki) on Cholinesterase (Homo sapiens, UniProt P06276) for `CC(C)NC[C@H](O)c1cc(OC(=O)N(C)C)cc(OC(=O)N(C)C)c1.Cl` ? 3200

----------
Carbamylation rate constant (ki) values, listed per item
# TGT: Cholinesterase (Homo sapiens, UniProt P06276)
# ASSAY_REMARKS: Inhibition of human BChE D70G/T243M/G390V mutant atypical-fluoride resistant heterozygous variant using propionylthiocholine as substrate assessed as inhibition rate constant incubated up to 30 mins prior to substrate addition by Ellman's method
# Sequence (P06276 29-602 limits assumed): as the sequence (P06276 29-602 limits assumed, stated change not applied) above
Give your result in ×10³ /M/min as a bare value.

Some entries whose results are on file:
MOLECULE	TGT	Carbamylation rate constant (ki) / ×10³ /M/min
CC(C)NCC(O)c1cc(OC(=O)N(C)C)cc(OC(=O)N(C)C)c1.Cl (racemic)	Cholinesterase (Homo sapiens, UniProt P06276)	440
CC(C)NC[C@H](O)c1ccc(OC(=O)N(C)C)c(OC(=O)N(C)C)c1.Cl	Cholinesterase (Homo sapiens, UniProt P06276)	100
CC(C)NCC(O)c1ccc(OC(=O)N(C)C)c(OC(=O)N(C)C)c1.Cl (racemic)	Cholinesterase (Homo sapiens, UniProt P06276)	87

Kindly consider the entry below.
Quick one: Carbamylation rate constant (ki) for `CC(C)NC[C@H](O)c1cc(OC(=O)N(C)C)cc(OC(=O)N(C)C)c1.Cl` ? 550
